# Test system: Plasmodium falciparum
# methodSummary: Antimalarial activity against chloroquine-resistant Plasmodium falciparum K1 infected in erythroctes incubated for 72 hrs by SYBR green 1 based spectrofluorometer
# Assay type: functional, organism-based, Erythrocyte
# conditionParameters: erythrocyte
pEC50: −log10 of the molar value.
Listed below: pEC50 values for each entry.
resultType: pEC50

# compound, boundOperator, valueObserved
records = [
    ("COC(=O)C1=C(C)NC2=C(C(=O)OC(c3ccc(OC)c(OC)c3)C2)C1c1ccccc1Cl (mixture of isomers)", "<", 5.03),
    ("COc1ccc(C2CC3=C(C(=O)O2)C(c2ccccc2Cl)C(C(=O)OCc2ccccc2)=C(C)N3)cc1OC (stereo in doubt; 31B)", "<", 5.04),
    ("CCOC(=O)C1=C(C)NC2=C(C(=O)OC(c3ccc(OC)c(OC)c3)C2)C1c1ccccc1Cl (stereo in doubt; 3A)", "=", 5.86),
    ("CCOC(=O)C1=C(C(=O)OCC)C(c2ccccc2Cl)C2=C(CC(c3ccc(OC)c(OC)c3)OC2=O)N1 (mixture of isomers)", "=", 7.65),
    ("CCCC1=C(C(=O)OCC)C(c2ccccc2Cl)C2=C(CC(c3ccc(OC)c(OC)c3)OC2=O)N1 (stereo in doubt; 32B)", "=", 8.04),
    ("COCC1=C(C(=O)OC)C(c2ccc(Cl)cc2C)C2=C(CC(c3ccc(OC)c(OC)c3)CC2=O)N1 (stereo in doubt; 51A)", "=", 7.67),
    ("CCOC(=O)C1=C(C)NC2=C(C(=O)OC(c3cccc(C)c3)C2)C1c1ccccc1Cl (stereo in doubt; 22B)", "<", 5.22),
    ("CCOC(=O)C1=C(C)NC2=C(C(=O)CC(c3ccc(OC)c(OC)c3)C2)C1c1ccc(Cl)cc1 (stereo in doubt; 36B)", "=", 8.03),
    ("COc1ccc(C2CC3=C(C(=O)O2)C(c2ccccc2Cl)C(C(=O)OC(C)(C)C)=C(C)N3)cc1OC (stereo in doubt; 30B)", "=", 6.57),
]

* * *

# Test system: Plasmodium falciparum
# methodSummary: Antimalarial activity against chloroquine-resistant Plasmodium falciparum K1 infected in erythroctes incubated for 72 hrs by SYBR green 1 based spectrofluorometer
# Format: functional, organism-based, Erythrocyte
# conditionParameters: erythrocyte
pEC50: −log10 of the molar value.
Reported pEC50 maps to class as: 1: < 6; 2: ≥ 6 and < 7; 3: ≥ 7

# compound, class
data = [
    ("CCCC1=C(C(=O)OCC)C(c2ccc(Cl)cc2C)C2=C(CC(c3ccc(Cl)c(OC)c3)CC2=O)N1 (stereo in doubt; 46A)", 2),
    ("CCOC(=O)C1=C(C)NC2=C(C(=O)OC(c3ccc(C)cc3)C2)C1c1ccccc1Cl (stereo in doubt; 23B)", 1),
    ("CCOC(=O)C1=C(C)NC2=C(C(=O)OC(c3ccccc3Cl)C2)C1c1ccccc1Cl (mixture of isomers)", 1),
    ("CCOC(=O)C1=C(C)NC2=C(C(=O)OC(c3ccc(OC)c(OC)c3)C2)C1c1ccccc1 (stereo in doubt; 1A)", 1),
    ("CCCC1=C(C(=O)OCC)C(c2ccc(Cl)cc2C)C2=C(CC(c3ccc(OC)c(OC)c3)CC2=O)N1 (mixture of isomers)", 3),
    ("CCOC(=O)C1=C(C)NC2=C(C(=O)CC(c3ccc(Cl)c(OC)c3)C2)C1c1ccc(Cl)cc1C (stereo in doubt; 41A)", 2),
    ("COCC1=C(C(=O)OC)C(c2ccc(Cl)cc2)C2=C(CC(c3cc(OC)c(OC)c(OC)c3)OC2=O)N1 (mixture of isomers)", 3),
    ("CCOC(=O)C1=C(C)NC2=C(C(=O)OC(c3ccc(OC)c(OC)c3)C2)C1c1ccc(C)cc1 (mixture of isomers)", 1),
]

* * *

Listed below: pEC50 values for each entry.
# Test system: Plasmodium falciparum
# methodSummary: Antimalarial activity against chloroquine-resistant Plasmodium falciparum K1 infected in erythroctes incubated for 72 hrs by SYBR green 1 based spectrofluorometer
# Format: functional, organism-based, Erythrocyte
# conditionParameters: erythrocyte
pEC50: −log10 of the molar value.
resultType: pEC50

# molecule, targetUnderTest, boundOperator, valueObserved
rows = [
    ("CCOC(=O)C1=C(C)NC2=C(C(=O)OC(c3ccc(Cl)c(OC)c3)C2)C1c1ccc(Cl)cc1C (stereo in doubt; 42B)", "Plasmodium falciparum", "=", 7.42),
    ("CCCC1=C(C(=O)OCC)C(c2ccc(Cl)cc2C)C2=C(CC(c3ccc(OC)c(OC)c3)CC2=O)N1 (stereo in doubt; 44A)", "Plasmodium falciparum", "=", 7.08),
    ("CCOC(=O)C1=C(C)NC2=C(C(=O)OC(c3ccc(Cl)cc3)C2)C1c1ccccc1Cl (mixture of isomers)", "Plasmodium falciparum", "<", 5.26),
    ("CCOC(=O)C1=C(C)NC2=C(C(=O)OC(c3ccc(Cl)c(OC)c3)C2)C1c1ccc(Cl)cc1C (mixture of isomers)", "Plasmodium falciparum", "=", 7.14),
    ("CCOC(=O)C1=C(C)NC2=C(C(=O)OC(c3ccc(OC)c(OC)c3)C2)C1c1ccc(Br)cc1 (stereo in doubt; 12A)", "Plasmodium falciparum", "=", 5.47),
    ("CCOC(=O)C1=C(C)NC2=C(C(=O)CC(c3ccc(Cl)c(OC)c3)C2)C1c1ccc(Cl)cc1C (stereo in doubt; 41B)", "Plasmodium falciparum", "=", 8.01),
    ("COCC1=C(C(=O)OC)C(c2ccc(Cl)cc2C)C2=C(CC(c3ccc(OC)c(OC)c3)OC2=O)N1 (mixture of isomers)", "Plasmodium falciparum", "=", 7.09),
    ("CCOC(=O)C1=C(C)NC2=C(C(=O)OC(c3ccc(OC)c(OC)c3)C2)C1c1ccccc1Cl (mixture of isomers)", "Plasmodium falciparum", "=", 6.49),
]

* * *

# Tested on: Plasmodium falciparum
# methodSummary: Antimalarial activity against chloroquine-sensitive Plasmodium falciparum 3D7 infected in erythroctes incubated for 72 hrs by SYBR green 1 based spectrofluorometer
# Assay type: functional, organism-based, Erythrocyte
# conditionParameters: Plasmodium falciparum, 3D7, Erythrocyte, 72 h

# molecule, EC50
data = [
    ("CCOC(=O)C1=C(C)NC2=C(C(=O)OC(c3ccc(OC)c(OC)c3)C2)C1c1cccc2ccccc12 (stereo unspecified)", "> 10 µM"),
    ("CCOC(=O)C1=C(C)NC2=C(C(=O)OC(c3ccc(C)cc3)C2)C1c1ccccc1Cl (stereo in doubt; 23A)", "> 5 µM"),
    ("CCN(CC)CCCC(C)Nc1ccnc2cc(Cl)ccc12 (stereo unspecified)", "0.048 µM"),
    ("CCOC(=O)C1=C(C)NC2=C(C(=O)OC(c3cccc(Cl)c3)C2)C1c1ccccc1Cl (stereo unspecified)", "> 6 µM"),
    ("CCOC(=O)C1=C(C)NC2=C(C(=O)OC(c3ccc(OC)c(OC)c3)C2)C1c1ccc2ccccc2c1 (stereo unspecified)", "> 10 µM"),
    ("CCOC(=O)C1=C(C)NC2=C(C(=O)OC(c3ccccc3C)C2)C1c1ccccc1Cl (stereo unspecified)", "> 5 µM"),
]

* * *

# Test system: Plasmodium falciparum
# methodSummary: Antimalarial activity against chloroquine-resistant Plasmodium falciparum K1 infected in erythroctes incubated for 72 hrs by SYBR green 1 based spectrofluorometer
# Assay type: functional, organism-based, Erythrocyte
# conditionParameters: erythrocyte
Listed below: EC50 values for each entry.

# compound, targetUnderTest, resultUnit, boundOperator, EC50
rows = [
    ("COC(=O)C1=C(C)NC2=C(C(=O)OC(c3ccc(OC)c(OC)c3)C2)C1c1ccccc1Cl (stereo in doubt; 28A)", "Plasmodium falciparum", "µM", ">", 8.5),
    ("CCOC(=O)C1=C(C)NC2=C(C(=O)OC(c3ccc(C)cc3)C2)C1c1ccccc1Cl (stereo in doubt; 23A)", "Plasmodium falciparum", "µM", ">", 5),
    ("CCCOC(=O)C1=C(C)NC2=C(C(=O)OC(c3ccc(OC)c(OC)c3)C2)C1c1ccccc1Cl (mixture of isomers)", "Plasmodium falciparum", "µM", "=", 1.63),
    ("CCOC(=O)C1=C(C)NC2=C(C(=O)OC(c3ccc(OC)c(OC)c3)C2)C1c1ccc([N+](=O)[O-])cc1 (stereo in doubt; 13B)", "Plasmodium falciparum", "µM", "=", 2.2),
    ("CCOC(=O)C1=C(C)NC2=C(C(=O)OC(c3ccc(OC)cc3)C2)C1c1ccccc1Cl (stereo in doubt; 26A)", "Plasmodium falciparum", "µM", ">", 7),
    ("CCCC1=C(C(=O)OCC)C(c2ccc(Cl)cc2C)C2=C(CC(c3ccc(Cl)c(OC)c3)OC2=O)N1 (stereo in doubt; 47B)", "Plasmodium falciparum", "µM", "=", 0.0215),
    ("COc1ccc(C2CC3=C(C(=O)O2)C(c2ccccc2Cl)C(C(=O)OC(C)(C)C)=C(C)N3)cc1OC (stereo in doubt; 30A)", "Plasmodium falciparum", "µM", ">", 13),
]
